Hello, the source for this data is PubChem BioAssay, in case you need it.

experimentDescription: fission yeast growth modulation, primary screen, strain 972, OD600, 24 h, no modulator (AID 1090);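 also: basal condition with compound alone and no growth modifier present; test concentration not given here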
settings: S. pombe 972 growth, higher = more signal, called active from +8 up or from −8 down
endpointName: z-score
// no unit, no text: just the number

compound: CN(C)C(=O)[C@@]1(CCC(=O)OC(C)(C)C)N=C(c2ccc(OCCCO)cc2)O[C@H]1c1ccccc1CN=[N+]=[N-]
z-score: 0.245

Q. Reported z-score for CS(=O)(=O)CCOC(=O)C1=CC(CCCO)=CC(C2CC2)N(Cc2cccc(OC(F)(F)F)c2)C=C1C(=O)OCCS(C)(=O)=O (configuration not stated) : what is it?
A. -2.34

Q. Sample COC(=O)C(CC#Cc1ccc2c(c1)[C@]1(C(=O)N2)[C@H](C(=O)Nc2nc3ccccc3s2)[C@H]2C(=O)O[C@H](c3ccccc3)[C@H](c3ccccc3)N2[C@@H]1c1ccc(OCCO)cc1)C(=O)OC — what was its z-score?
A. -0.144

---

systemName: Dickkopf-related protein 1 (Homo sapiens)
experimentDescription: DKK1 binders on small-molecule microarrays, primary screen, biochemical, small-molecule microarray, 635 nm fluorescence scan (AID 1106);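 also: score merges emission near 667 nm with signal to noise over three replicate slides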
settings: DKK1 binding, higher = more signal
endpointName: composite z-score
Reply briefly: the number, and no unit.

Look over these answered cases.
molecule: COc1ccc(C#Cc2ccc3c(c2)[C@]2(C(=O)N3)[C@H](C(=O)Nc3nc4ccccc4s3)[C@H]3C(=O)O[C@H](c4ccccc4)[C@H](c4ccccc4)N3[C@@H]2c2ccccc2OCCO)cc1
systemName: Dickkopf-related protein 1 (Homo sapiens)
endpointName: composite z-score
resultNumber: 0.47
--
molecule: CCN(CC)c1ccc(N2CC=CC34O[C@@H]5/C=C\CCC(C)OC(=O)C5[C@H]3C(=O)N(C(C)CO)[C@@H]4C2=O)cc1 (some centres not stated)
systemName: Dickkopf-related protein 1 (Homo sapiens)
endpointName: composite z-score
resultNumber: 0.492
--
molecule: C=CCN1C(=O)[C@]2(O[C@H](CCO)[C@@H]([Si](C)(C)c3ccc(OC)cc3)[C@@H]2C)c2cc(N3C(=O)COc4ccccc43)ccc21
systemName: Dickkopf-related protein 1 (Homo sapiens)
endpointName: composite z-score
resultNumber: -0.207
--
molecule: COC(=O)[C@@]1(Cc2ccc(F)cc2)[C@H]2c3cc(C(=O)N4CCCC4)n(C)c3C[C@H]2CN1C(=O)c1ccccc1
systemName: Dickkopf-related protein 1 (Homo sapiens)
endpointName: composite z-score
resultNumber: -0.856
--
molecule: O=C1C[C@@](C(=O)NCC(F)(F)F)(c2ccc([N+](=O)[O-])cc2)[C@@H](c2ccc(CO)cc2)N1CC12CC3CC(CC(C3)C1)C2
systemName: Dickkopf-related protein 1 (Homo sapiens)
endpointName: composite z-score
resultNumber: 0.927
--
molecule: C=CCNC(=O)[C@H]1[C@@H]2C(=O)O[C@@H](c3ccccc3)[C@@H](c3ccccc3)N2[C@@H](c2ccc(O)cc2)[C@]12C(=O)N(C(=O)OCCOC)c1ccc(C#CCC(C(=O)OC)C(=O)OC)cc12
systemName: Dickkopf-related protein 1 (Homo sapiens)
endpointName: composite z-score
resultNumber: 0.641

// switching to the query molecule
Q. What measured composite z-score is associated with O=c1cccc(-c2ccco2)o1 on Dickkopf-related protein 1 (Homo sapiens)?
A. 1.16

---

experimentDescription: cell viability in Huh7 cells, primary screen, cytotoxicity control for HCV replication inhibitor project, CellTiter-Glo luminescence, basal, 48 h (AID 1143);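 also: Huh7 hepatoma cells carrying a hepatitis C replication reporter with no stimulus; test concentration not given here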
settings: Huh7 HCV replicon, higher = more signal, called active from +8 up or from −8 down
endpointName: z-score
Note: the reply should be a number with no unit written.

These recorded examples may help you get a feel for the data.
compound: NC(=O)[C@H]1[C@@H]2C(=O)O[C@@H](c3ccccc3)[C@@H](c3ccccc3)N2[C@@H](c2ccc(O)cc2)[C@]12C(=O)Nc1ccccc12
z-score: -0.0816

compound: COc1ccc(C#Cc2ccc3c(c2)[C@]2(C(=O)N3)[C@H](C(=O)N3CCCCCCC3)[C@H]3C(=O)O[C@H](c4ccccc4)[C@H](c4ccccc4)N3[C@@H]2c2ccc(O)cc2)cc1
z-score: -0.71

compound: CC1(C)C(=O)C(c2ccccc2)=C2CN3C(=O)N(CCc4ccccc4)C(=O)C3(Cc3ccc(F)cc3)C=C21 (centres undefined)
z-score: -1.86

Here is another compound to look at.
Q. May I ask what z-score has been recorded for CC(C)c1ccc(NN2C(C(O)Cc3ccccc3)C=CC3C(=O)N(c4ccccc4)C(=O)C32)cc1 (centres undefined) ?
A. -0.695

---

systemName: Alpha-bungarotoxin (Bungarus multicinctus)
experimentDescription: alpha-bungarotoxin binders on microarray, profiling panel, artefact control for SMM control protein annotation, biochemical, small-molecule microarray, Alexa647 label, 635/667 nm fluorescence (AID 1117)
settings: alpha-BTX-A647 binding fluorescence, higher = more signal
// label = T if composite z-score is not less than 1, otherwise F

Below, 10 molecules whose answers are already recorded.
molecule: CCCCCCCCCCC(O)C1C=CC2C(=O)N(c3ccccc3)C(=O)C2N1Nc1ccccc1F (stereo not given)
assignedLabel: F
--
molecule: CN1C(=O)C2C=CC(C(O)c3ccc(I)cc3)N(Nc3ccccc3)C2C1=O (stereo not given)
assignedLabel: T
--
molecule: [N-]=[N+]=NCc1ccccc1[C@@H]1OC(c2ccc(OCCCO)cc2)=N[C@]1(Cc1ccccc1)C(=O)NCCN1CCOCC1
assignedLabel: F
--
molecule: COCCOC(=O)N1C(=O)[C@@]2(c3cc(C#CCNC(N)=O)ccc31)[C@H](c1ccc(O)cc1)N1[C@H](c3ccccc3)[C@H](c3ccccc3)OC(=O)[C@H]1[C@@H]2C(=O)N1CCN(c2ncccn2)CC1
assignedLabel: T
--
molecule: COc1ccc([Si](C)(C)[C@H]2[C@H](CCO)O[C@@]3(C(=O)N(Cc4ccc(N5C(=O)c6ccccc6Oc6ccccc65)cc4)c4ccccc43)[C@@H]2C)cc1
assignedLabel: F
--
molecule: COC(=O)C1=CC(CCCO)=CC(c2ccc(CN3CCCC3)cc2)N(Cc2cc3c(cc2Br)OCO3)C=C1C(=O)OC (stereo not given)
assignedLabel: F
--
molecule: C=CC1c2cc(O)c(OC)cc2CCN1Cc1ccc([N+](=O)[O-])o1 (stereo not given)
assignedLabel: F
--
molecule: COCCOC(=O)N1C(=O)[C@@]2(c3cc(C#CCNC(N)=O)ccc31)[C@H](c1ccc(OCCO)cc1)N1[C@H](c3ccccc3)[C@H](c3ccccc3)OC(=O)[C@H]1[C@@H]2C(N)=O
assignedLabel: F
--
molecule: C=C(COC)C(=O)CC[C@H](OC(=O)c1cccnc1)c1ccc(CO)o1
assignedLabel: F
--
molecule: COC(=O)[C@@]1(Cc2ccc(F)cc2)[C@H]2c3cc(C(=O)N(C)C)n(Cc4ccc(O)c(OC)c4)c3C[C@H]2CN1C(=O)c1ccccc1
assignedLabel: F

Q. Reported composite z-score reaches at least 1 for O=C1C2C=CC(C(O)c3ccc(I)cc3)N(Nc3ccccc3)C2C(=O)N1c1ccccc1 (stereo not given) ?
A. T

Q. Please indicate if the recorded composite z-score for COc1cc(NN2C(C(O)c3cc(OC)c(OC)c(OC)c3)C=CC3C(=O)N(c4ccccc4)C(=O)C32)cc(OC)c1OC (stereo not given) meets or exceeds 1.
A. T

Q. Decide: is the reported value of composite z-score for CCOC(=O)C1=C[C@@H](C(C)(C)C)N(S(=O)(=O)c2ccc(C)cc2)[C@H]1c1cccc(Cl)c1 equal to or greater than 1?
A. T

Q. Is it the case that CC1(C)C(=O)C(c2ccccc2)=C2CN3C(=O)N(CCc4ccccc4)C(=O)C3(Cc3ccc(F)cc3)C=C21 (stereo not given) has composite z-score reaching or exceeding 1?
A. F

---

experimentDescription: fission yeast growth modulation, primary screen, strain 972, OD600, 24 h, no modulator (AID 1090);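 also: basal condition with compound alone and no growth modifier present; test concentration not given here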
settings: S. pombe 972 growth, higher = more signal, called active from +8 up or from −8 down
Measured z-score of individual entries
Number only, no unit.

Worked set:
compound: COCCOC(=O)N1C(=O)[C@@]2(c3cc(C#CCC(C(=O)OC)C(=O)OC)ccc31)[C@H](c1ccc(O)cc1)N1[C@H](c3ccccc3)[C@H](c3ccccc3)OC(=O)[C@H]1[C@@H]2C(=O)NC[C@H](O)c1ccccc1
endpointName: z-score
resultNumber: -0.371
--
compound: CC(=O)NCCCC[C@@H]1NC(=O)[C@@H]2C[C@H](C(=O)NCCCCCCN)[C@H](c3cccc(OCCO)c3)N2C1=O
endpointName: z-score
resultNumber: -0.646
--
compound: O=C1O[C@H](c2ccccc2)[C@H](c2ccccc2)N2[C@H]1[C@@H](C(=O)N1CCCCCCC1)[C@]1(C(=O)Nc3ccc(C#CC4(O)CCCCCC4)cc31)[C@H]2c1ccccc1OCCO
endpointName: z-score
resultNumber: 0.462

Q. Which z-score is listed for Cc1c(NC(=O)/C(C#N)=C/c2ccccc2Cl)c(=O)n(-c2ccccc2)n1C ?
A. -1.76

Q. Bench note: what z-score did NC(=O)[C@H]1[C@@H]2C(=O)O[C@@H](c3ccccc3)[C@@H](c3ccccc3)N2[C@@H](c2ccc(O)cc2)[C@]12C(=O)Nc1ccccc12 show?
A. -0.732

Q. Bench note: what z-score did [N-]=[N+]=Nc1ccccc1C[C@]1(C(=O)O)N=C(c2ccc(OCCCO)cc2)O[C@H]1c1ccccc1 show?
A. 0.888

Q. Record request: z-score value, item C=C(COC)C(=O)CC[C@H](OC(C)=O)c1ccc(OCCO)cc1
A. -2.5

Q. May I ask what z-score has been recorded for C[C@]1(C(=O)NCCN2CCOCC2)c2ccccc2C(=O)N(Cc2cc(F)cc(C(F)(F)F)c2)[C@H]1c1ccc(CO)cc1 ?
A. 0.487
